# Tested on: human panelists (sweet taste of glucose)
# test.protocol: Glucose enhancement test: paired-comparison human panelist taste test
# Format: in vivo
# condition.details: 7% glucose + 8 ppm compound vs 8.5% glucose
measure: sweetness perceived by panelists relative to 8.5% glucose

NC1=NS(=O)(=O)Nc2cccc(OCC3(C(=O)NC4CCCCC4)CCCNC3=O)c21 (stereo not shown)
significantly sweeter
CC(C)NC(=O)C1(COc2cccc3c2C(N)=NS(=O)(=O)N3)CCCNC1=O (stereo not shown)
significantly sweeter
NC1=NS(=O)(=O)Nc2cccc(OCC3(C(=O)NC4CCCC4)CCCNC3=O)c21 (stereo not shown)
significantly sweeter
